Source listed as patent US8012929B2.

- target-under-test: hERG potassium channel (Homo sapiens)
- Construct: expressed in transfected cells
- Sequence (Q12809 whole entry): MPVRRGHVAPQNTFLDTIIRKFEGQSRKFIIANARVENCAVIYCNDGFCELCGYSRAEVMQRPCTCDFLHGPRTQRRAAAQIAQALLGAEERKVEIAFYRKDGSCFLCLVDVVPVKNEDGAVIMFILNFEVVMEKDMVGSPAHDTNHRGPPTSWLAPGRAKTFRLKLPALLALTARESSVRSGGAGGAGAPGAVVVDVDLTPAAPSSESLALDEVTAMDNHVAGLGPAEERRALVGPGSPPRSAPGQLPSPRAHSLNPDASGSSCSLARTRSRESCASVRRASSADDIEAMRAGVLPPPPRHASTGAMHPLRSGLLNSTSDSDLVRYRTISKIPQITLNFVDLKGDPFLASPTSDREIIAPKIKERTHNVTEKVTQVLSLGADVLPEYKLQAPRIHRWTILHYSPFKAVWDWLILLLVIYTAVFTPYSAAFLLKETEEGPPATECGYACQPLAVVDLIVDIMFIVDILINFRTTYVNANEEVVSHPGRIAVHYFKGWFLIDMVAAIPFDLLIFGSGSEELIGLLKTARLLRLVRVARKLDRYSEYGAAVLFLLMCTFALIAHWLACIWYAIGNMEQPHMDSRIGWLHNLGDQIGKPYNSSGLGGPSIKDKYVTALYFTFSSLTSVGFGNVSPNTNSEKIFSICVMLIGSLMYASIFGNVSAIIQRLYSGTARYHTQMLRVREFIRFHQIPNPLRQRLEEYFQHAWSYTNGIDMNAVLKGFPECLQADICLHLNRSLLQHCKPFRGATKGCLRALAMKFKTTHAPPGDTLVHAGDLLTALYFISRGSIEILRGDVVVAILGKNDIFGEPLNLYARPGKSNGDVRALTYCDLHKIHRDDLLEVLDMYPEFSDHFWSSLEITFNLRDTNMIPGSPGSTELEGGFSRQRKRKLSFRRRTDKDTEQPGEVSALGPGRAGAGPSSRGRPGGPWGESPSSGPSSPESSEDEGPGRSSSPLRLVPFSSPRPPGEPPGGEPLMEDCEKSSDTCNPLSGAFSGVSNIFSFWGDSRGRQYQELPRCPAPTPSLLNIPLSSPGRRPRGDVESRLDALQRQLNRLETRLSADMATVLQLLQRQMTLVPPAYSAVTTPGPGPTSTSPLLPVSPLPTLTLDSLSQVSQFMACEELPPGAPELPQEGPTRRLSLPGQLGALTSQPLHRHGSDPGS
- protocol: Functional hERG assay (patch clamp)
- Assay type: cell-based
- condition-description: human, HEK cells stably expressing the hERG potassium channel, read-out: IC50 for potassium current
pIC50: −log10 of the molar value. Square brackets hold non-standard residues; d marks the D form. Peptide text beside a SMILES is read from it. Aib = CC(C)(N)C(=O)O
reported-metric: pIC50

Give the reported pIC50 for this compound. CC(C)(NC(=O)[C@H](N)Cc1c[nH]c2ccccc12)C(=O)O [D-Trp-Aib] (H-[dW]-[Aib]-OH)
< 4.30

###

- protocol: Aggregate mean particle size by dynamic light scattering
- Type: physicochemical
- condition-description: 100 μM peptide, 1% DMSO, 10 mM Tris pH 7.2
reported-metric: apparent hydrodynamic diameter of the structures formed

substance	observed-result
I5A: isoleucine to alanine mutant of the hIAPP peptide fragment, SEQ ID NO: 5 (NFGAALSS)	Smaller structures
L6A: leucine to alanine mutant of the hIAPP peptide fragment, SEQ ID NO: 6 (NFGAIASS)	Smaller structures
N1A: alanine-scan mutant of the hIAPP peptide fragment, SEQ ID NO: 2 (AFGAILSS)	Smaller structures
